system under test: human HSD17B13 (Homo sapiens, UniProt Q7Z5P4)
Sequence (Q7Z5P4 20-300): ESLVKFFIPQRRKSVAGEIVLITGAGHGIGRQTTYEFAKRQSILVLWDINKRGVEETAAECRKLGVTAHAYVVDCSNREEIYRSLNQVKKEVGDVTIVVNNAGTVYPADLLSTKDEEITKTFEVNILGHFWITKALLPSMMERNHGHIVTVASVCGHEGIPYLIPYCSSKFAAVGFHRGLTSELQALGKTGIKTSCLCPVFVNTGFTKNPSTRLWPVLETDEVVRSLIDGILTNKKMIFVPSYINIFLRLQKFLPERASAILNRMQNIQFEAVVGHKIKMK
method description: Substrate screening of steroid and bioactive lipid libraries against purified recombinant HSD17B13 (NADH-linked luciferase assay)
Assay type: biochemical
condition parameters: Bioactive Lipid Library, 5 μM bioactive lipid, normalized to 50 μM estradiol after subtraction of 5% DMSO
Where a name gives a salt, the structure may show the parent alone.
Could you please report measured HSD17B13 Enzymatic Activity Percent Estradiol Control for the items listed next?
One number for each entry, in %.

CCCCC/C=C\C[C@H](O)/C=C/C=C/C=C\[C@@H](O)CCCC(=O)O [12-epi Leukotriene B4] = 8.39
CCCCC/C=C\C[C@@H](O)/C=C/c1cccc(C[C@@H](O)CCCCO)n1 = 7.59
O=P([O-])(O)O[C@@H]1[C@@H](O)[C@H](O)[C@H](O)[C@H](O)[C@H]1OP(=O)([O-])O.[Na+].[Na+] = −3.27

Please report HSD17B13 Enzymatic Activity Percent Estradiol Control for every entry that follows.
1. CCCCC/C=C\C[C@@H](O)/C=C/C=C/C=C\[C@@H](O)CCCC(=O)N(C)C [Leukotriene B4 dimethyl amide]
2. [2H]C([2H])(/C=C\C[C@H]1[C@@H](O)CC(=O)O[C@@H]1/C=C/[C@@H](O)CCCCC)C([2H])([2H])CC(=O)O [11-dehydro Thromboxane B2-d4]
3. CCCCC/C=C\C=C\[C@H](O)CCCCCCCC(=O)O [9(R)-HODE]
4. O=P(O)(O)O[C@@H]1C(O)[C@@H](OP(=O)(O)O)[C@@H](OP(=O)(O)O)C(O)[C@H]1OP(=O)(O)O (stereo partly shown) [(sodium salt)]
5. CCCCCCCC\C=C/C=C/C=C/[C@@H]1O[C@H]1CCCC(=O)OC

128.60
3.11
9.40
5.95
55.92

Dear colleague, could you please provide HSD17B13 Enzymatic Activity Percent Estradiol Control for the compounds listed below?
1. CC/C=C\C/C=C\C/C=C\C=C\C(O)C/C=C\CCCC(=O)O (racemic) [(±)8-HEPE]
2. CC/C=C\C[C@H](O)/C=C/[C@@H]1[C@@H](C/C=C\CCCC(=O)O)[C@@H](O)C[C@H]1O
3. CCCCC/C=C\C[C@H](O)/C=C/C=C\C/C=C\CCCC(=O)O (racemic) [(±)12-HETE]
4. CCCCCC(O)C=CC1OC(=O)CC(O)C1CC=CCC(=O)O (stereo not shown) [11-dehydro-2,3-dinor Thromboxane B2]
5. O=C(O)CCC/C=C\C/C=C\C/C=C\C/C=C\CCCCCC(=O)O
6. CCCCC/C=C\C=C\[C@@H](O)C/C=C\C/C=C\CCCC(=O)O [11(S)-HETE]
7. CC/C=C\C/C=C\C/C=C\C/C=C\C=C\C(O)CCCC(=O)O (racemic) [(±)5-HEPE]
8. O=P(O)(O)O[C@@H]1[C@@H](OP(=O)(O)O)[C@@H](OP(=O)(O)O)[C@@H](O)[C@H](O)[C@H]1OP(=O)(O)O [(ammonium salt)]

[13.83, 8.08, 77.17, "−7.90", "−2.36", 30.46, 4.85, 3.57]

I need HSD17B13 Enzymatic Activity Percent Estradiol Control for every entry listed below, if you could help.
1. CCCCC[C@H](O)/C=C/C=C\C/C=C\CCCCCCC(=O)O [15(S)-HETrE]
2. CCCCCC(=O)CC[C@@H]1[C@H](C/C=C\CCCC(=O)O)[C@@H](O)C[C@H]1O
3. CCCCC/C=C\C\C=C/C=C/C=C/[C@@H](O)[C@@H](O)CCCC(=O)O [5(S),6(R)-DiHETE]
4. O=P([O-])(O)OC1[C@@H](O)[C@H](OP(=O)([O-])O)C(OP(=O)([O-])O)[C@H](OP(=O)([O-])O)[C@H]1O.[Na+].[Na+].[Na+].[Na+] (stereo partly shown)
5. CCCCC/C=C\C/C=C\C/C=C\C=C\[C@@H](O)CCCC(=O)O (racemic) [(±)5-HETE]
6. CCCCC/C=C\CC1OC1CCCCCCCC(=O)O (racemic) [(±)9(10)-EpOME]
7. CC#CCC(C)[C@H](O)/C=C/[C@@H]1[C@H]2C/C(=C/CCCC(=O)O)C[C@H]2C[C@H]1O (stereo partly shown)
8. CC/C=C\CC(O)/C=C/C=C\C/C=C\C/C=C\CCCC(=O)O (racemic) [(±)15-HEPE]

26.14
−5.58
1.66
7.98
10.79
2.23
5.99
21.70

Parameter requested: HSD17B13 Enzymatic Activity Percent Estradiol Control. Apply to each item below.
1. CCCCC/C=C\C/C=C\C/C=C\C=C\[C@@H](O)CCCC(=O)O [5(S)-HETE]
2. O=C(O)CCC[C@H](O)\C=C/C=C/C=C/[C@H](O)C/C=C\CCCCCO [20-hydroxy Leukotriene B4]
3. CCCCC[C@H](O)/C=C/C=C\C=C\C=C\[C@@H](O)[C@@H](O)CCCC(=O)O

[10.71, 29.33, 2.09]

Please report HSD17B13 Enzymatic Activity Percent Estradiol Control for every entry that follows.
1. CCCCC/C=C\C[C@@H](O)/C=C/C=C/C=C/[C@@H](O)CCCC(=O)O (relative stereo) [6-trans Leukotriene B4]
2. CCCCC/C=C\C[C@@H](O)/C=C/C=C\CCC(=O)O [tetranor-12(R)-HETE]
3. CCCCCC(O)/C=C/C=C\CCCCCCCCCC(=O)O (racemic) [(±)15-HEDE]
4. CCCCCC(=O)/C=C/[C@H]1C(O)CC(=O)[C@H]1C/C=C\CCCC(=O)O (stereo partly shown) [8-iso-15-keto Prostaglandin E2]

[68.61, 31.37, 85.06, "−1.65"]

----------
system under test: HSD17B5 (Homo sapiens, UniProt P42330)
Construct: made in house
Sequence (P42330 whole entry): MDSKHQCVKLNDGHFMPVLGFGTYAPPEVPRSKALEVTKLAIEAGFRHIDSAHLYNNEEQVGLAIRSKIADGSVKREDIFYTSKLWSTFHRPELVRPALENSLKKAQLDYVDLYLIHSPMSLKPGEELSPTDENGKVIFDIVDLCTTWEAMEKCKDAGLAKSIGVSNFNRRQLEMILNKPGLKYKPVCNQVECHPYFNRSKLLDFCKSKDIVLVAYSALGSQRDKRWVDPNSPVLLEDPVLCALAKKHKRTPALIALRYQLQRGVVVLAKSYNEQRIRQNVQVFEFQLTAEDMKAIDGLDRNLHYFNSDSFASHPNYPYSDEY
method description: Steroid substrate panel against HSD17B family member B5
Assay type: biochemical
condition parameters: substrate at 50 μM; estradiol set as 100%
parameter: Percent of Control (POC), B5
The reply should read as a number followed by its unit.

Use the examples below as a reference point.
CC(=O)OCC(=O)[C@H]1CC[C@H]2[C@@H]3CCC4=CC(=O)CC[C@]4(C)[C@H]3[C@@H](O)C[C@]12C [Corticosterone 21-acetate] = 0%
C[C@H](O)[C@@]1(O)CC[C@H]2[C@@H]3CC[C@@H]4C[C@H](O)CC[C@]4(C)[C@H]3CC[C@@]21C = 48%
CC[C@H]1[C@@H](O)[C@@H]2[C@H](CC[C@]3(C)[C@@H]([C@H](C)CCC(=O)O)CC[C@@H]23)[C@@]2(C)CC[C@@H](O)C[C@@H]12 = 192%
C[C@]12CC[C@@H](O)C[C@@H]1CC[C@@H]1[C@@H]2C(=O)C[C@]2(C)C(=O)CC[C@@H]12 = 0%
C[C@]12CCC(O)C[C@@H]1CC[C@@H]1[C@@H]2CC[C@]2(C)[C@@H](O)CC[C@@H]12 (stereo partly drawn) = 216%

For the next question, use this compound.
Which Percent of Control (POC), B5 reading was recorded for the compound "C[C@]12CC[C@@H](O)C[C@@H]1CC[C@@H]1[C@@H]2CC[C@]2(C)C(=O)CC[C@@H]12" ?
0%

----------
system under test: human HSD17B13 (Homo sapiens, UniProt Q7Z5P4)
method description: Substrate screening of steroid and bioactive lipid libraries against purified recombinant HSD17B13 (NADH-linked luciferase assay)
Type: biochemical
condition parameters: Bioactive Lipid Library, 5 μM bioactive lipid (Estradiol Control 50 μM), 500 μM NAD+, 100 ng enzyme, 3 hours at 23° C.
Please respond with reported HSD17B13 Enzymatic Activity Relative Light Units for every item in the list.
One number for each entry, in RLU.

// known answers, use as guide
CCCCC/C=C\C[C@@H](O)/C=C/C=C/C=C\[C@@H](O)CCCC(=O)O [Leukotriene B4] = 1743000
O=C(O)CCCC=C1CC2CC(O)C(C#CC(O)C3CCCCC3)C2C1 (stereo not shown) = 356360

Look up HSD17B13 Enzymatic Activity Relative Light Units for the entries below, preserving their order.
1. CCCCC/C=C\C/C=C\C=C\C(O)C/C=C\CCCC(=O)O (racemic) [(±)8-HETE]
2. O=C(O)CCC/C=C\C[C@@H]1[C@@H](/C=C/[C@@H](O)COc2ccc(I)cc2)[C@H]2CC[C@@H]1O2 [I-BOP]

592720
358960

----------
system under test: human HSD17B13 (Homo sapiens, UniProt Q7Z5P4)
method description: Substrate screening of steroid and bioactive lipid libraries against purified recombinant HSD17B13 (NADH-linked luciferase assay)
Assay type: biochemical
condition parameters: Bioactive Lipid Library, 5 μM bioactive lipid, normalized to 50 μM estradiol after subtraction of 5% DMSO
Procedure: To understand the functional consequences of premature truncation of the HSD17B13 protein due to rs72613567:TA (the associated variant, rs72613567, is an insertion of an adenine adjacent to the donor splice site of exon six (TA allele)), the enzymatic activity of isoforms A and D was evaluated in vitro using recombinant protein and nicotinamide […] dinucleotide as cofactor. […]
parameter: HSD17B13 Enzymatic Activity Percent Estradiol Control (%)
One number for each entry, in %.

Here's what some known entries look like.
CCCCC/C=C\C=C\[C@H](CCCCCCCC(=O)O)OO [9(S)-HpODE] = −5.03
CCCCC/C=C\C/C=C\C/C=C\C=C\[C@H](CCCC(=O)O)OO [5(S)-HpETE] = −4.55
[2H]C([2H])(CC(=O)CC[C@H]1C(=O)C[C@H](O)[C@@H]1CCC(=O)O)C([2H])([2H])C([2H])([2H])C(=O)O = 3.81
O=C(O)CCC/C=C\C[C@@H]1[C@@H](/C=C/[C@@H](O)COc2ccc(I)cc2)[C@H]2CC[C@@H]1O2 = 6.00
CC/C=C\C/C=C\C=C\C(O)C/C=C\C/C=C\CCCC(=O)O (racemic) [(±)11-HEPE] = 37.56

Dear reader, for each entry below, please note its HSD17B13 Enzymatic Activity Percent Estradiol Control.
1. CCCCC/C=C\C=C\C(=O)CCCCCCCC(=O)O
2. O=P([O-])(O)O[C@@H]1C(O)[C@H](OP(=O)([O-])O)[C@H](O)C(O)[C@H]1O.[Na+].[Na+] (some centres unmarked)
3. CCCCC/C=C\C=C\[C@H](O)CCCCCCCCCC(=O)O (racemic) [(±)11-HEDE]

1: 5.39; 2: 8.97; 3: 77.87
